# Test system: pathogenic bacteria
# MEASUREMENT PROTOCOL: MIC by microdilution broth method (NCCLS M7-A4), in vitro antibacterial activity
# Assay type: cell-based
# MEASUREMENT SETUP: Streptococcus pneumoniae, Organism B: fluoroquinolone-resistant clinical isolate of Streptococcus pneumoniae (QRDR amino acid substitutions)
OBSERVATION TYPE: MIC (µg/mL)
Number in µg/mL, nothing else.

Look up MIC: COc1c(N2CCC/C(=C(\C)CN)C2)c(F)cc2c(=O)c(C(=O)O)cn(C3CC3)c12
1

What about NCC(Cl)=C1CCN(c2c(F)cc3c(=O)c(C(=O)O)cn(C4CC4)c3c2OC(F)F)CC1 ?
0.5

What about COc1c(N2CCC(=C(Cl)CNC(=O)CN)CC2)c(F)cc2c(=O)c(C(=O)O)cn(C3CC3)c12.O=C(O)C(F)(F)F ?
16

What about CC(CN)=C1CN(c2cc3c(c(C)c2F)c(=O)c(C(=O)O)cn3C2CC2)C1 ?
0.25

###

# System: pathogenic bacteria
# MEASUREMENT PROTOCOL: MIC by microdilution broth method (NCCLS M7-A4), in vitro antibacterial activity
# Type: cell-based
# MEASUREMENT SETUP: Staphylococcus aureus, Organism A: Staphylococcus aureus OC4172; read-out: MIC
Can you tell me MIC for the items I'm about to list?
Number in mg/L, nothing else.

Enter reported MIC observed with pathogenic bacteria for CC1(C)CN(c2nc3c(cc2F)c(=O)c(C(=O)O)cn3C2CC2)CCC1=C(Br)CN
0.25

What about COc1c(N2CCC(=C(CN)CCO)CC2)c(F)cc2c(=O)c(C(=O)O)cn(C3CC3)c12 ?
0.12

What about NC/C=C1\CCCN(c2c(F)cc3c(=O)c(C(=O)O)cn(C4CC4)c3c2OC(F)F)C1 ?
0.06

What about CN(C)CC(Cl)=C1CCN(c2nc3c(cc2F)c(=O)c(C(=O)O)cn3C2CC2)CC1 ?
0.5

What about NCC=C1CCN(c2nc3c(cc2F)c(=O)c(C(=O)O)cn3C2CC2)CC1O (stereo not shown) ?
2

What about NC/C(F)=C1/CCCN(c2cc3c(cc2F)c(=O)c(C(=O)O)cn3C2CC2)CC1 ?
0.5

What about CN(C)CC(F)=C1CCN(c2nc3c(cc2F)c(=O)c(C(=O)O)cn3C2CC2)CC1 ?
0.06

What about C/C(CN)=C1\CCCN(c2c(F)cc3c(=O)c(C(=O)O)cn4c3c2OC[C@@H]4C)C1 ?
0.12

What about CC(C)NCC(F)=C1CCN(c2nc3c(cc2F)c(=O)c(C(=O)O)cn3C2CC2)CC1 ?
0.5

What about NC/C(Cl)=C1\CCCN(c2c(F)cc3c(=O)c(C(=O)O)cn(C4CC4)c3c2OC(F)F)C1 ?
0.25

What about CNCC(F)=C1CN(c2cc3c(cc2F)c(=O)c(C(=O)O)cn3C2CC2)C1.O=C(O)C(F)(F)F ?
0.12

What about CNC/C(F)=C1/CCCN(c2c(F)cc3c(=O)c(C(=O)O)cn(C4CC4)c3c2OC)C1.Cl ?
0.06

What about NCC(Cl)=C1CN(c2c(F)cc3c(=O)c(C(=O)O)cn(C4CC4)c3c2OC(F)F)C1 ?
0.25

What about Nc1nc(-n2cc(C(=O)O)c(=O)c3cc(F)c(N4CCC/C(=C(/Cl)CO)C4)c(Cl)c32)c(F)cc1F ?
0.06

What about Cc1c(F)c(N2CCC/C(=C(/F)CN)C2)cc2c1c(=O)c(C(=O)O)cn2C1CC1 ?
0.06

What about COc1c(N2CCOC/C(=C(\F)CN)C2)c(F)cc2c(=O)c(C(=O)O)cn(C3CC3)c12 ?
0.06

What about CC(CN)=C1CCN(c2nc3c(cc2F)c(=O)c(C(=O)O)cn3C2CC2)CC1O (stereo not shown) ?
2

What about COc1c(N2CCC/C(=C(/Cl)CN)C2)c(F)cc2c(=O)c(C(=O)O)cn([C@@H]3C[C@@H]3F)c12 ?
0.25

What about CCC(CN)=C1CCN(c2c(F)cc3c(=O)c(C(=O)O)cn(C4CC4)c3c2OC)CC1 ?
0.03

What about CCNCC(F)=C1CCN(c2c(F)cc3c(=O)c(C(=O)O)cn(C4CC4)c3c2OC)CC1 ?
0.06

What about COc1c(N2CCC/C(=C\CN)C2)c(F)cc2c(=O)c(C(=O)O)cn([C@@H]3C[C@@H]3F)c12 ?
0.12

What about COc1c(N2CCC(=C(F)CN(C)C)CC2)c(F)cc2c(=O)c(C(=O)O)cn(C3CC3)c12 ?
0.06

What about NC/C(F)=C1/COCCN(c2cc3c(cc2F)c(=O)c(C(=O)O)cn3C2CC2)C1 ?
4

What about NCC(Cl)=C1CCN(c2c(F)c(N)c3c(=O)c(C(=O)O)cn(C4CC4)c3c2F)CC1 ?
0.03

What about COc1c(N2CCC(=C(Cl)CNC(C)C)CC2)c(F)cc2c(=O)c(C(=O)O)cn(C3CC3)c12 ?
0.12

What about NCC(C(=O)O)=C1CCN(c2nc3c(cc2F)c(=O)c(C(=O)O)cn3C2CC2)CC1 ?
4

What about C[C@H]1COc2c(N3CCC/C(=C\CN)C3)c(F)cc3c(=O)c(C(=O)O)cn1c23 ?
1
